pIC50 by entry:
- systemTested: PI3Kδ (p110δ/p85α) (Homo sapiens)
- Construct: purchased Millipore (Bedford, Mass.)
- Sequence (O00329 whole entry): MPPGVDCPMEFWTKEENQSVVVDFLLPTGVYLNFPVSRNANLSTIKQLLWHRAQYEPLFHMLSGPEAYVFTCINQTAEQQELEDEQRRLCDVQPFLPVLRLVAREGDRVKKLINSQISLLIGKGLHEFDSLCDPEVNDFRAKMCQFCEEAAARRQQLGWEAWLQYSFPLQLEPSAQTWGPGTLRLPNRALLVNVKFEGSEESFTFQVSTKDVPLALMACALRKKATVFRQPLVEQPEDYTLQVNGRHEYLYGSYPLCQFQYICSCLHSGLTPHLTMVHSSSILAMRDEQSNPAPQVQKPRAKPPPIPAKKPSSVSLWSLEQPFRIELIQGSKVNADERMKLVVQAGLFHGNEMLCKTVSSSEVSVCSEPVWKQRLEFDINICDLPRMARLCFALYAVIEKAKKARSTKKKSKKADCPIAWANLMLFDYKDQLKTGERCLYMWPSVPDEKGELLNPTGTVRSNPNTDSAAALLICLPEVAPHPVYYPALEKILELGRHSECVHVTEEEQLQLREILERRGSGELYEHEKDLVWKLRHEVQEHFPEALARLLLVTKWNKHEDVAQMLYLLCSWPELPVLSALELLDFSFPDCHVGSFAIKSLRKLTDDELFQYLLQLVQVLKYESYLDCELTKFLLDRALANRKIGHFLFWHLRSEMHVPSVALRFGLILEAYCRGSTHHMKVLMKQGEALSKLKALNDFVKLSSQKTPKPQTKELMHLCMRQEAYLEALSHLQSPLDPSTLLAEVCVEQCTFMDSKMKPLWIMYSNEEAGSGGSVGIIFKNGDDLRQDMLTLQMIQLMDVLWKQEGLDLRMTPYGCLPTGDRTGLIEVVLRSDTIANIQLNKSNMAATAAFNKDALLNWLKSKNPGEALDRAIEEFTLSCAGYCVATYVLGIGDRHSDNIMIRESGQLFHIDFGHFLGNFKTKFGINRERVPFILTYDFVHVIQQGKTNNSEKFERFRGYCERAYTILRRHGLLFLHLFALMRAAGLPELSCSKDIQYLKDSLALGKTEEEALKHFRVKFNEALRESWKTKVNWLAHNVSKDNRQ
- Sequence (P27986 whole entry partner): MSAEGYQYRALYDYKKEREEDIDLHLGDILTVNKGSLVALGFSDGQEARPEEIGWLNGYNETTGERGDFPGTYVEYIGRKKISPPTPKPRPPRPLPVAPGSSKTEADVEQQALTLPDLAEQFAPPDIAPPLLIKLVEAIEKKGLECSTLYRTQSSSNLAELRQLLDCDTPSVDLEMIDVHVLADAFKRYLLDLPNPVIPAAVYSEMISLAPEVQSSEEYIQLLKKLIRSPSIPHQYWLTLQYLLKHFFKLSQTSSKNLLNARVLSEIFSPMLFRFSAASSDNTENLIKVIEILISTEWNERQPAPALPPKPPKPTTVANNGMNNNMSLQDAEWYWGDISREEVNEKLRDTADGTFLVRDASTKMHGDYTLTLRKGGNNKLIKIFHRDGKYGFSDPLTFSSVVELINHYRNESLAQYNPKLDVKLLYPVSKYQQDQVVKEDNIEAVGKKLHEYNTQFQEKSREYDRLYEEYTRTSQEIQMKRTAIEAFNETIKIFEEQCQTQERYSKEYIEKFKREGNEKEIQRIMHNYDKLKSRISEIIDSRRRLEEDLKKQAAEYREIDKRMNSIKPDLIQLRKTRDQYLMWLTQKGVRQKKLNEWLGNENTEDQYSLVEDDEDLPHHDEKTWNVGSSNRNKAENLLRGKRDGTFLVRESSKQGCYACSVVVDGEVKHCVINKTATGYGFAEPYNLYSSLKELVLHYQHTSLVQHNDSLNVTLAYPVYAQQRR
- assaySummary: PI3Kδ Scintillation Proximity Assay
- Assay type: biochemical
- assayConditions: TFA salts of racemates tested; 20 μM PIP2, 20 μM ATP, 4 nM PI3Kδ, 210 min, room temperature
pIC50: −log10 of the molar value. Structures can show the parent of a compound that is named as a salt.

Enquiry: What pIC50 value was documented for this molecule, CC(Nc1ncnc2[nH]cnc12)c1c(Cl)c2ccccc2n1-c1cccc(F)c1 (racemic) [Example 3, trifluoroacetate] ?
Return: ≥ 7.30

Enquiry: Could you do the same for CC(Nc1ncnc2[nH]cnc12)c1c(C#N)c2ccccc2n1-c1cccc(F)c1 (racemic) [Example 9, 2,2,2-trifluoroacetate] , please?
Return: ≥ 7.30

Enquiry: Could you do the same for CC(Nc1ncnc2[nH]cnc12)c1c(F)c2cccnc2n1-c1cccc(F)c1 (racemic) [Example 10, bis(2,2,2-trifluoroacetate)] , please?
Return: 6.60 to 7.00

Enquiry: Could you do the same for CC(Nc1ncnc2[nH]cnc12)c1cc2c(Cl)cccc2n1-c1cccc(F)c1 (racemic) [Example 2, trifluoroacetate] , please?
Return: ≥ 7.30

Enquiry: Could you do the same for Cc1c(C(C)Nc2ncnc3[nH]cnc23)n(-c2cccc(F)c2)c2ccccc12 (racemic) [Example 8, trifluoroacetate] , please?
Return: ≥ 7.30

Enquiry: Could you do the same for CC(Nc1ncnc2[nH]cnc12)c1cc2ccc(Cl)cc2n1-c1cccc(F)c1 (racemic) [Example 1, trifluoroacetate] , please?
Return: 6.60 to 7.00

Enquiry: Could you do the same for CC(Nc1ncnc2[nH]cnc12)c1cc2cccnc2n1-c1cccc(F)c1 (racemic) [Example 7, bis(2,2,2-trifluoroacetate)] , please?
Return: 6.12 to 6.60

Enquiry: Could you do the same for CC(Nc1ncnc2[nH]cnc12)c1c(Cl)c2cccnc2n1-c1cccc(F)c1 (racemic) [Example 6, bis(trifluoroacetate)] , please?
Return: ≥ 7.30

Enquiry: Could you do the same for CC(Nc1ncnc2[nH]cnc12)c1c(Cl)c2c(Cl)cccc2n1-c1cccc(F)c1 (racemic) [Example 4, trifluoroacetate] , please?
Return: 7.00 to 7.30

Enquiry: Could you do the same for CC(Nc1ncnc2[nH]cnc12)c1c(Br)c2ccccc2n1-c1cccc(F)c1 (racemic) [Example 5, trifluoroacetate] , please?
Return: 7.00 to 7.30
